For each entry below, report its activity (max response) value.
- TEST_DESCRIPTION: Cellular viability qHTS for adrenocortical cancer (ACC) cell line SW-13 (AID 1963989);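 further: cells grown in serum-free medium with ITS supplement; on the % scale 0 is the no-effect control and ±100 the full control effect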
- MEASUREMENT_CONDITIONS: SW-13 ACC cells viability, CellTiter-Glo, 48 h; stronger effect = lower value
Results filed as inconclusive are left out.
Field format: number, assumed %, no unit text.

Data request, read-out activity (max response), for N[C@@H](COP(=O)(O)O)C(=O)O -3.07

Recorded activity (max response) for C[C@]12CCCN1CC1=NNC(=O)c3cc(F)cc4[nH]c2c1c34 , please? -23.5

# get_value(readout='activity (max response)', item= O=C1O[C@H](CO)[C@@H](O)[C@H](O)[C@H]1O ) 5.91

Consider the compound shown here: CN(C)c1cc(NC(=O)CNC(C)(C)C)c(O)c2c1C[C@H]1C[C@H]3[C@H](N(C)C)C(=O)C(C(N)=O)=C(O)[C@]3(O)C(=O)C1=C2O What is its recorded activity (max response)? -8.31

What does the data say about its activity (max response)? Entry: CCOC(=O)[C@H](CCc1ccccc1)N[C@@H](C)C(=O)N1C(=O)N(C)C[C@H]1C(=O)O 5.98

Value lookup for activity (max response); key = CC(C)(C)NC[C@H](O)COc1nsnc1N1CCOCC1 -5.85

Can you share its activity (max response)? I mean this compound: Cc1nc([N+](=O)[O-])cn1-c1ccc([N+](=O)[O-])cc1 -2.45

What value of activity (max response) has been reported for the following compound? C=C(C)C(=O)OCC(O)CO (stereo not given) -4.84

Data request, read-out activity (max response), for CN(CC1(C)CCCO1)S(=O)(=O)c1ccc(Cl)c(S(N)(=O)=O)c1 (stereo not given) 13.7

Requested read-out: activity (max response). Entry: CC(C)(C)Sc1c(CC(C)(C)C(=O)O)n(Cc2ccc(Cl)cc2)c2ccc(OCc3ccc4ccccc4n3)cc12 0.331
